These measurements were taken from patent US20200199196A1.

ASSAY_TARGET: T1, monomeric RANK (monomeric fragment of RANK) (UniProt O35305 31-214)
T1 chain: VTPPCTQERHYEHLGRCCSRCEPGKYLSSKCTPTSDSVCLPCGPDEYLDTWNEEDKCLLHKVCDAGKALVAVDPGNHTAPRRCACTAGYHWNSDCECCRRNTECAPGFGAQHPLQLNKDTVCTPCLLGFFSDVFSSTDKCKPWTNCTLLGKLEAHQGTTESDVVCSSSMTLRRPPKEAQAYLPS
EXPERIMENT_NOTES: yeast surface display titration
QUANTITY_MEASURED: Kd

Task item: Give its Kd value. Item: Q236H (protein) MRRASRDYGKYLRSSEEMGSGPGVPHEGPLHPAPSAPAPAPPPAASRSMFLALLGLGLGQVVCSIALFLYFRAQMDPNRISEDSTHCFYRILRLHENADLQDSTLESEDTLPDSCRRMKQAFQGAVQKELQHIVGPQRFSGAPAMMEGSWLDVAQRGKPEAQPFAHLTINAASIPSGSHKVTLSSWYHDRGWAKISNMTLSNGKLRVNQDGFYYLYANICFRHHETSGSVPTDYLHLMVYVVKTSIKIPSSHNLMKGGSTKNWSGNSEFHFYSINVGGFFKLRAGEEISIQVSNPSLLDPDQDATYFGAFKVQDID
Reply: ~346 nM

Task item: // next record KQF htRANKL (K194E, Q236H, F269Y) (ligand) QPFAHLTINAASIPSGSHKVTLSSWYHDRGWAEISNMTLSNGKLRVNQDGFYYLYANISFRHHETSGSVPTDYLHLMVYVVKTSEKIPSSHNLMKGGSTKNWSGNSEYHFYSINVGGFFKLRAGEEISIQVSNPSLLDPDQDATYFGAFKVQDID
Reply: ~23.6 nM

Task item: // next record KQFH htRANKL (K194E, Q236H, F269Y, H270Y) (ligand, also called RANK^high variant) QPFAHLTINAASIPSGSHKVTLSSWYHDRGWAEISNMTLSNGKLRVNQDGFYYLYANISFRHHETSGSVPTDYLHLMVYVVKTSEKIPSSHNLMKGGSTKNWSGNSEYYFYSINVGGFFKLRAGEEISIQVSNPSLLDPDQDATYFGAFKVQDID
Reply: ~1.4 nM

Task item: // next record H270Y (protein) MRRASRDYGKYLRSSEEMGSGPGVPHEGPLHPAPSAPAPAPPPAASRSMFLALLGLGLGQVVCSIALFLYFRAQMDPNRISEDSTHCFYRILRLHENADLQDSTLESEDTLPDSCRRMKQAFQGAVQKELQHIVGPQRFSGAPAMMEGSWLDVAQRGKPEAQPFAHLTINAASIPSGSHKVTLSSWYHDRGWAKISNMTLSNGKLRVNQDGFYYLYANICFRHHETSGSVPTDYLQLMVYVVKTSIKIPSSHNLMKGGSTKNWSGNSEFYFYSINVGGFFKLRAGEEISIQVSNPSLLDPDQDATYFGAFKVQDID
Reply: ~465 nM

Task item: // next record K/Q (protein) MRRASRDYGKYLRSSEEMGSGPGVPHEGPLHPAPSAPAPAPPPAASRSMFLALLGLGLGQVVCSIALFLYFRAQMDPNRISEDSTHCFYRILRLHENADLQDSTLESEDTLPDSCRRMKQAFQGAVQKELQHIVGPQRFSGAPAMMEGSWLDVAQRGKPEAQPFAHLTINAASIPSGSHKVTLSSWYHDRGWAEISNMTLSNGKLRVNQDGFYYLYANICFRHHETSGSVPTDYLHLMVYVVKTSIKIPSSHNLMKGGSTKNWSGNSEFHFYSINVGGFFKLRAGEEISIQVSNPSLLDPDQDATYFGAFKVQDID
Reply: ~69.7 nM
